- conditionsUsed: Ebola virus entry assay, green fluorescence channel
Measured potencies and affinities stand elsewhere. Calls of active or inactive are those of the source. Calls follow the shape of the full dose curve.
Result category, one only: T for active, F for inactive

# example entries with known answers
| givenSmiles | qualitativeLabel |
| --- | --- |
| CN(C)CC[C@@H](c1ccc(Br)cc1)c1ccccn1 | F |
| OCCN(CCO)c1nc(N2CCCCC2)c2nc(N(CCO)CCO)nc(N3CCCCC3)c2n1 | T |
| CC(C)(O)c1ccccc1CC[C@@H](SCC1(CC(=O)O)CC1)c1cccc(/C=C/c2ccc3ccc(Cl)cc3n2)c1 | F |

*Q* Assay result, entry `Nc1nnc(-c2cccc(Cl)c2Cl)c(N)n1` — outcome?
*A* F
